# testedSystem: panel of 442 kinases (Homo sapiens)
# Construct: purchased Ambit Biosciences (scanMAXX KINOMEscan)
# Sequence (Q9UEE5 1-414): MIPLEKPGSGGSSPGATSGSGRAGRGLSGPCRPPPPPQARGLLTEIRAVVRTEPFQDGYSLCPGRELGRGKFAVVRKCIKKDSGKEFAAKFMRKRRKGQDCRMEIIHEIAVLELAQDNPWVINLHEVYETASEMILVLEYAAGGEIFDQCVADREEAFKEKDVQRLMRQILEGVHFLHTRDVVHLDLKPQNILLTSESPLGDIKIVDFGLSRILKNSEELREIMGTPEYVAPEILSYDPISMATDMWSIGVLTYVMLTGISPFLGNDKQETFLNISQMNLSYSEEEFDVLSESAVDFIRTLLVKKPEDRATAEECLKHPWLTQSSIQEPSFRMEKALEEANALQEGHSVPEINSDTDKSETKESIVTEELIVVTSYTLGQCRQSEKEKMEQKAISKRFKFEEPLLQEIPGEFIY
# methodDescription: biochemical
# Assay type: binding
# setupConditions: DRAK1; 1 µM; read-out: % of control at 1 µM
Below, each of the molecules is paired with its reported remaining activity at 1 µM value.
property: remaining activity at 1 µM (%)

molecule: Cn1c(=O)n(-c2ccc(C(C)(C)C#N)cc2)c2c3cc(-c4cnc5ccccc5c4)ccc3ncc21 [Dactolisib]
number: 91
//
molecule: FC(F)c1nc2ccccc2n1-c1nc(N2CCOCC2)nc(N2CCOCC2)n1 [ZSTK474]
number: 90
//
molecule: Nc1cc(C(F)(F)F)c(-c2cc(N3CCOCC3)nc(N3CCOCC3)n2)cn1 [Buparlisib]
number: 100
//
molecule: COc1ncc(-c2ccc3nccc(-c4ccnnc4)c3c2)cc1NS(=O)(=O)c1ccc(F)cc1F [Omipalisib]
number: 100
